- experiment_summary: Agilent ZORBAX 300 SB-C18, 150 × 1 mm, 3.5 µm; A: water + 0.01% heptafluorobutyric acid; B: acetonitrile + 0.01% heptafluorobutyric acid; gradient (min/%B) 0/0 100/90
- settings: stereoisomer not certain
Listed below: LC retention time values for each entry.
Your answer should be a plain number; it is taken to be in min.

Recorded LC retention time, per entry:
# compound, LC retention time [min]
measured = [
    ("CCOC(=O)C1CCC(=O)N1 (stereo not given)", 6.88),
    ("CCCN(CCC)CCC", 8.17),
    ("O=C(Cc1cccc2ccccc12)N1CCN(Cc2ccccc2)CC1", 10.4),
]

Ask | Reported LC retention time for NCCN1CCNCC1 : what is it?
Reply | 6.42

Ask | What do you get for CC(=O)Oc1ccc(C(=O)N2CCc3ccccc32)cc1 ?
Reply | 13.2

Ask | What do you get for CC(C)(C)NCC(O)COc1nsnc1N1CCOCC1 (stereo not given) ?
Reply | 9.09

Ask | What do you get for O=C(CCN1C(=O)c2ccccc2C1=O)Nc1cccc(C(=O)O)c1 ?
Reply | 10.2

Ask | What do you get for Cc1cc(=O)[nH]c(N)n1 ?
Reply | 5.97

Ask | What do you get for Cc1cc(C=O)c(C)n1-c1ccccc1 ?
Reply | 13

Ask | What do you get for C=Cc1ccc(CN(C)C)cc1 ?
Reply | 8.6

Ask | What do you get for O=C1CC(N2CCN(Cc3ccccc3)CC2)C(=O)N1Cc1ccccc1 (stereo not given) ?
Reply | 9.91

Ask | What do you get for O=CC1CCN(Cc2ccccc2)CC1 ?
Reply | 7.84

Ask | What do you get for CN(C)c1ccc(C=C2Nc3ccccc3C2=O)cc1 ?
Reply | 13.7

Ask | What do you get for O=C(c1ccccc1)c1nc2ccccc2[nH]c1=O ?
Reply | 11.2

Ask | What do you get for O=C(C=Cc1ccccc1O)c1ccc(O)cc1O ?
Reply | 12.2

Ask | What do you get for Cn1c(C(c2ccccc2)c2ccccc2)n[nH]c1=S ?
Reply | 12.9

Ask | What do you get for Cc1cc(C=NNC(N)=S)c(C)n1-c1ccccc1 ?
Reply | 12.7

Ask | What do you get for COc1ccc(-c2oc3ccccc3c(=O)c2OC)cc1OC ?
Reply | 13.4

Ask | What do you get for O=C(O)Cc1c(C(=O)O)[nH]c2cc(C(=O)O)ccc12 ?
Reply | 7.47

Ask | What do you get for C#CC(C)(C)NC(C)=O ?
Reply | 6.79

Ask | What do you get for CCCCC1(C)NC(=S)N(c2ccc(C)cc2)N1 (stereo not given) ?
Reply | 15.1

Ask | What do you get for COc1ccccc1OCC(=O)N1CCNC1=O ?
Reply | 8.89
